Source listed as paper PMC10397247.

Target: T1, 4H2915-bA
T1 chain: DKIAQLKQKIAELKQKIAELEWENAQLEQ
Assay: two-hybrid library CCNG1;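 further: natural log of median RNA to DNA barcode read ratio; higher means stronger binding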
Binary call on interaction score: MET from 0.1 upward, NOT MET beneath that.

| binder | assigned.category |
| --- | --- |
| DKIAQLKQKIAELEQENAELEWKNAQLEQ [4H2839-bA] | NOT MET |
| DKIAQLKQENAELEQENAELKWKIAQLEQ [4H2717-bA] | NOT MET |
| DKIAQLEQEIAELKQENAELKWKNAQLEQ [4H2143-bA] | MET |
| DKIAQLKQENAELEQEIAELEWENAQLKQ [4H2692-bA] | MET |

Please tell me: is the binder DKIAQLEQKNAELEQKIAELKWEIAQLEQ [4H2473-bA] at or over 0.1 in terms of interaction score? MET

Please tell me: is the binder DKIAQLEQEIAELKQENAELEWKIAQLKQ [4H2134-bA] at or over 0.1 in terms of interaction score? MET

Please tell me: is the binder DKIAQLEQENAELEQKIAELKWKNAQLEQ [4H2223-bA] at or over 0.1 in terms of interaction score? MET

Please tell me: is the binder DKIAQLEQKNAELEQEIAELEWKIAQLKQ [4H2438-bA] at or over 0.1 in terms of interaction score? MET

Please tell me: is the binder DKIAQLEQKNAELKQEIAELEWKNAQLEQ [4H2503-bA] at or over 0.1 in terms of interaction score? NOT MET

Please tell me: is the binder DKIAQLKQEIAELEQENAELKWENAQLKQ [4H2588-bA] at or over 0.1 in terms of interaction score? MET

Please tell me: is the binder DEIAQLEQENAELEQKNAELEWKIAQLKQ [4H182-bA] at or over 0.1 in terms of interaction score? MET

Please tell me: is the binder DEIAQLEQEIAELKQKNAELKWEIAQLEQ [4H121-bA] at or over 0.1 in terms of interaction score? NOT MET

Please tell me: is the binder DKIAQLKQKIAELKQKIAELEWENAQLEQ [4H2915-bA] at or over 0.1 in terms of interaction score? MET
